molecular target: T1, PSMA Fab; assay: clonal phage ELISA on captured PSMA Fab, wells pre-incubated with PSMA antigen as competitor, anti-M13-HRP detection;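 also: crude clonal phage supernatants added without washing after the PSMA preincubation, comparison wells received blocking buffer alone without PSMA, bound phage read after washing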
T1 construct: Biotinylated and captured on neutravidin plates in the phage ELISA; also called anti-PSMA Fab; 006 PSMA Fab
Where no end group is shown, it is not given here.
PROPERTY_NAME: phage binding ELISA signal in presence of PSMA
Answers are plain numbers.

Solved entries:
NWPVCKPMWMCTGF [Phage-2898]	0.155
IERMCRPAWMCDGF [Phage-2896]	0.188
QALMCVPEWMCLGF [Phage-2895]	0.1
VFPACVPNWMCVGF [Phage-2904]	0.129
HDKLCRPAWMCNGF [Phage-2897]	0.107

Lab note: each binder below needs its phage binding ELISA signal in presence of PSMA filled in.
1. PSHYCVPAWMCAGF (cysteine pairing not given here; also: peptide displayed as fusion to phage pIII) [Phage-2905]
2. VLKMCEPLWMCVGF [Phage-2894]
3. ETPFCIPQWMCDGF [Phage-2892]
4. VTPKCVPMWMCAGF [Phage-2901]
5. QTVMCRPAWMCVGF [Phage-2902]
6. PWLMCKPAWMCTGF [Phage-2900]
7. ALPQCVPAWMCLGF [Phage-2893]
8. MEIRCTPPWMCMGF [Phage-2899]

### Response
[0.0875, 0.117, 0.123, 0.123, 0.092, 0.183, 0.0796, 0.0795]

### Prompt Report phage binding ELISA signal in presence of PSMA, nothing else, for this binder: VTPACVPTWMCYGF [Phage-2903]
### Response 0.116
